- measurementTarget: biotinylated CIB1 (Homo sapiens)
- Sequence (Q99828 whole entry): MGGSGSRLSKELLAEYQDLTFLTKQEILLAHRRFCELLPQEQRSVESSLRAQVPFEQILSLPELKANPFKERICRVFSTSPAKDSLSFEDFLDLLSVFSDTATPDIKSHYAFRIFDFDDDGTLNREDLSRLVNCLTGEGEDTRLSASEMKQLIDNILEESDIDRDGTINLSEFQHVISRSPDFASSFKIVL
- assaySummary: biochemical
- Type: binding
Ends that are not written are not given here.
assayEndpoint: IC50 (nM)
Report the value in nM with no unit label.

Would you mind telling me what IC50 value was observed for EDGGSFWYGAMKALYG-NH2 [UNC10245092] ? 46
